- tested.target: glucagon receptor (Mus musculus, UniProt Q61606)
- Sequence (Q61606 27-485): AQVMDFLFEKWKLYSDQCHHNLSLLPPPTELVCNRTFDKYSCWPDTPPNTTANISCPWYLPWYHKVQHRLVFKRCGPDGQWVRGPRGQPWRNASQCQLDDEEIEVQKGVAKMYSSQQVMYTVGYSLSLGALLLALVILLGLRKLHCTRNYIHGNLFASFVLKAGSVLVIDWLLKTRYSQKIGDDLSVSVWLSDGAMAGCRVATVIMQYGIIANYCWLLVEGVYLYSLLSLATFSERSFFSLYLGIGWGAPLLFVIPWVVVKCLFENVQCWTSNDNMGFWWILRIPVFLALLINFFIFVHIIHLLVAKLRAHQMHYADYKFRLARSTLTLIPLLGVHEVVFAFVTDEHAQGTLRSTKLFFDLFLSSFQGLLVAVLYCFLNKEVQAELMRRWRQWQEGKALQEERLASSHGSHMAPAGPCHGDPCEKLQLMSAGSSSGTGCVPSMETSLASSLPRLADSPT
- method.summary: Experiment for glucagon binding inhibition, mouse hepatic membrane (125I-glucagon)
- conditions: male ddY mouse hepatic membrane, 125I-glucagon 50 pM, 25° C. for 30 minutes; read-out: Glucagon binding inhibitory activity IC50 (nM) Mouse
quantity.kind: IC50 (nM)

# example entries with known answers
| molecule | val |
| --- | --- |
| O=C(NNC(=O)c1occc1-c1cccc(Cc2ccccc2Cl)c1)c1ccc(O)c([N+](=O)[O-])c1 [Example 225] | 68 |
| Cc1ccccc1Cc1cccc(-c2ccoc2C(=O)NNC(=O)c2ccc(O)c([N+](=O)[O-])c2)c1 [Example 229] | 58 |
| Cc1ccccc1COc1ccc(-c2ccoc2C(=O)NNC(=O)c2ccc(O)c([N+](=O)[O-])c2)cc1 [Example 213] | 80 |

I. CCCCCCc1ccc(-c2ccoc2C(=O)NNC(=O)c2ccc(O)c([N+](=O)[O-])c2)cc1 [Example 158]
II. N#Cc1cc(C(=O)NNC(=O)c2occc2-c2cccc(OCC(O)c3ccccc3)c2)ccc1O (stereo not drawn) [Example 108]
Smaller IC50 value, I vs II ? Please indicate the selected item by its label.
I
(I: 7.1 nM, II: 310 nM)

a. COc1ccc(COc2cccc(-c3ccoc3C(=O)NNC(=O)c3ccc(O)c([N+](=O)[O-])c3)c2)cc1 [Example 176]
b. CCc1ccc(-c2ccoc2C(=O)NNC(=O)c2ccc(O)c([N+](=O)[O-])c2)cc1 [Example 156]
Recorded IC50 values differ for a and b ; which one is higher? Reply briefly: the label of your chosen item.
b
(b: 45 nM, a: 5.2 nM)

1. O=C(NNC(=O)c1occc1-c1cccc(OCc2ccc3ccccc3c2)c1)c1ccc(O)c([N+](=O)[O-])c1 [Example 204]
2. CC(C)Oc1ccccc1-c1ccoc1C(=O)NNC(=O)c1ccc(O)c(C#N)c1 [Example 10]
Between the entries labelled 1 and 2 , which has a larger IC50 value on record? # reply format: chosen label
2

A. N#Cc1cc(C(=O)NNC(=O)c2occc2-c2cccs2)ccc1O [Example 60]
B. CCCCc1ccc(-c2ccoc2C(=O)NNC(=O)c2ccc(O)c([N+](=O)[O-])c2)cc1 [Example 142]
C. CC(=O)Nc1ccccc1COc1cccc(-c2ccoc2C(=O)NNC(=O)c2ccc(O)c([N+](=O)[O-])c2)c1 [Example 179]
D. COc1ccc(Cc2cccc(-c3ccoc3C(=O)NNC(=O)c3ccc(O)c([N+](=O)[O-])c3)c2)cc1 [Example 234]
Task for the reader: rank each entry by its IC50, from the minimum upward. Could you list the labels in the order requested?
B, C, D, A

A. Cc1cccc(-c2ccoc2C(=O)NNC(=O)c2ccc(O)c([N+](=O)[O-])c2)c1 [Example 145]
B. Cc1cccc(C)c1COc1cccc(-c2ccoc2C(=O)NNC(=O)c2ccc(O)c([N+](=O)[O-])c2)c1 [Example 224]
Between A and B , whose recorded IC50 is greater? Give the label of your selection.
A

###

- tested.target: UniProt:Q61606
- method.summary: Experiment for glucagon binding inhibition, mouse hepatic membrane (125I-glucagon)
- conditions: male ddY mouse hepatic membrane, 125I-glucagon 50 pM, 25° C. for 30 minutes; read-out: Glucagon binding inhibitory activity IC50 (nM) Mouse
quantity.kind: IC50 (nM)

| structure.as.smiles | IC50, nM |
| --- | --- |
| Cc1cc(C)cc(COc2cccc(-c3ccoc3C(=O)NNC(=O)c3ccc(O)c([N+](=O)[O-])c3)c2)c1 | 26 |

a. Cc1ccc(COc2ccc(-c3ccoc3C(=O)NNC(=O)c3ccc(O)c([N+](=O)[O-])c3)cc2)cc1
b. O=C(NNC(=O)c1occc1-c1ccccc1)c1ccc(O)c([N+](=O)[O-])c1
c. CCCc1ccc(-c2ccoc2C(=O)NNC(=O)c2ccc(O)c(C(F)(F)F)c2)cc1
Arrange by IC50, high to low. Output spec: labels arranged per the requested ranking.
c, b, a

I. C=C(C)COc1cccc(-c2ccoc2C(=O)NNC(=O)c2ccc(O)c([N+](=O)[O-])c2)c1
II. O=C(NNC(=O)c1occc1-c1cccc(OCc2cccc3ccccc23)c1)c1ccc(O)c([N+](=O)[O-])c1
Of the pair I and II , name the member with the lesser recorded IC50. Bench note: the answer is the label of the chosen record.
II

1. Cc1ccc(-c2ccoc2C(=O)NNC(=O)c2ccc(O)c([N+](=O)[O-])c2)cc1
2. Cc1ccccc1COc1cccc(-c2ccoc2C(=O)NNC(=O)c2ccc(O)c([N+](=O)[O-])c2)c1
3. N#Cc1cc(C(=O)NNC(=O)c2occc2-c2ccccc2)ccc1O
List these items ordered by IC50, big to small. Please, when replying, give the labels in the order that was requested.
3, 1, 2
(3: 200 nM, 1: 38 nM, 2: 9.6 nM)
